Assay Target: human cannabinoid CB2 receptors (Homo sapiens)
Sequence (P34972 whole entry): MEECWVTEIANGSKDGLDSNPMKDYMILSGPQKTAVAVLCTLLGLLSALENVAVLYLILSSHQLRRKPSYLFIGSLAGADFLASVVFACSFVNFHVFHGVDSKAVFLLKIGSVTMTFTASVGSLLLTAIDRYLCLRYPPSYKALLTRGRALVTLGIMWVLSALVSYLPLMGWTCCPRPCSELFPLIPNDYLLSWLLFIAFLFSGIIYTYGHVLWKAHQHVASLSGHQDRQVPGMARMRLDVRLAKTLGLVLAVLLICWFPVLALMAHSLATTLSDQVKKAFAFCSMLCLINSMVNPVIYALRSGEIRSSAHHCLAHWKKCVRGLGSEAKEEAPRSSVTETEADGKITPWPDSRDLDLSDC
Protocol Text: Inhibition of forskolin-stimulated cyclic AMP production in hCB2-CHO cells
Reported Conditions: hCB2-CHO cells; 5 μM forskolin
Measurement Type: EC50
Value and unit, in that order.

Form: compound = CCCCCc1cc(O)c(C/C=C(\C)CCC=C(C)C)c(O)c1 ; EC50 = 388 nM

###

Assay Target: CB1 receptors in mouse brain tissue (Mus musculus)
Construct: Whole mouse brain membranes were prepared as described by Thomas et al., 2004
Sequence (P47746 whole entry): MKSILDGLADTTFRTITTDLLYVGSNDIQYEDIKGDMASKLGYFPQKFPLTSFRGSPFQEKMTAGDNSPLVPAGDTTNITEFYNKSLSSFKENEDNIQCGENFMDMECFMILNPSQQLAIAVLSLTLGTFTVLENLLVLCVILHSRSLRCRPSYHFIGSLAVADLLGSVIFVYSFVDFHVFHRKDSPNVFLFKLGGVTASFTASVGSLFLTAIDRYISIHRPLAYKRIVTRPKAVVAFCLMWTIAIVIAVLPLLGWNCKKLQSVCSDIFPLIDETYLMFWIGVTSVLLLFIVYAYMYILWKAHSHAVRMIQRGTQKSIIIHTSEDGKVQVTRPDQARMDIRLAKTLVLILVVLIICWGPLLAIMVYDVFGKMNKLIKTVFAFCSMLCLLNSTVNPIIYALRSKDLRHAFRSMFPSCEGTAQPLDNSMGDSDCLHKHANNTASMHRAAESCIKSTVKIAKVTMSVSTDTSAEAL
Protocol Text: [3H]CP55940 radioligand displacement assay, mouse whole brain membranes
Measurement Type: Ki (nM)
// note: answer is a bare numeric in nM

Form: molecule = CCCCCc1cc(O)c(C/C=C(\C)CCC=C(C)C)c(O)c1 [CBG, cannabigerol] ; Ki = 439
